Test system: BEL-7402 liver cancer cell
Assay text: MTT anti-proliferative assay, BEL-7402
Assay type: cell-based, human
Reported conditions: Homo sapiens, Bel-7402; MTT, 48 h
pIC50: −log10 of the molar value.
Assay metric: pIC50

Completed entries (count: 3):
- COc1ccc(C(=O)/C=C/c2ccc(/C=C(\C#N)c3ccc(OC(F)(F)F)cc3)cc2)cc1: 4.88
- N#C/C(=C\c1ccc(/C=C/C(=O)c2ccccc2)cc1)c1ccc(OC(F)(F)F)cc1: < 4.00
- COc1cc(-n2cc(/C=C(\C#N)c3ccc(OC(F)(F)F)cc3)nn2)cc(OC)c1OC: < 4.00

Given N#C/C(=C\c1cn(Cc2ccccc2)c2ccccc12)c1ccc(OC(F)(F)F)cc1 , respond with its pIC50. < 4.00
